Data origin: PubChem BioAssay (NCI)

- Test system: DMS 273 small cell lung
- assay-remarks: NCI tumour cell line growth inhibition, 48 h
So I've got a bunch of compounds here, and I need their TGI values.

Reported TGI of COC(=N)/C(=C1\OC(N)=C(c2ccc(Cl)cc2)C1=O)c1ccc(Cl)cc1 : > 100 µM

Reported TGI of C/C(=N\NC(=S)Nc1ccc([N+](=O)[O-])cc1S(=O)(=O)O)c1ccccn1 : > 100 µM

Reported TGI of Cc1nc(Nc2ccc([N+](=O)[O-])cc2)sc1C(=O)/C=C/c1ccc(N(C)C)cc1 : > 100 µM

Reported TGI of C(=C1/CCCCC([n+]2ccccc2)=N1)/c1ccccc1 : > 100 µM

Reported TGI of O=C(NNc1ccc([N+](=O)[O-])cc1)C1OC(CO)C(O)C1O (centres undefined) : > 100 µM

Reported TGI of COc1ccc(C2CC(C)=Nc3c([nH]c(=S)[nH]c3=O)N2)cc1 (centres undefined) : 35.9 µM

Reported TGI of CN(C)/C(=N/C(=O)Nc1ccccc1)SCc1ccccc1 : > 100 µM

Reported TGI of CC1=CC(=O)c2[nH]c3ccccc3c2C1=O : 7.83 µM

Reported TGI of O=C1CCCc2c(O)ccc(O)c21 : > 100 µM

Reported TGI of C[P+](C)(CC(F)(F)F)c1ccccc1 : > 100 µM

Reported TGI of C/C(=N\N=C(N)N)c1sc(-c2nc(C)c(/C(C)=N/N=C(N)N)s2)nc1C : > 100 µM

Reported TGI of S=C1OC2C3C4CC5C3C(O1)C1C5C4C21 (centres undefined) : > 100 µM

Reported TGI of Cc1ccc(C)c(NC(=O)CCc2n[nH]c(=S)o2)c1 : > 100 µM

Reported TGI of Cc1cc(C(=O)NCCN(C)C)c2nc3ccccc3nc2c1 : > 100 µM

Reported TGI of CCCCCCCCSC(SCCCCCCCC)=C1C(=O)N(c2ccccc2)N=C1C : > 100 µM

Reported TGI of COc1ccccc1OCC(COC(=O)Nc1ccc(C)cc1)OC(=O)Nc1ccc(C)cc1 (centres undefined) : 32 µM

Reported TGI of C[C@@H]1CC2(N=CCS2)[C@]2(O)O[C@@H]3C[C@@]4(C)[C@H](C[C@H]3O[C@@H]2O1)C[C@H]1O[C@]12[C@@H]4[C@H](O)C(=O)[C@]1(C)C(C3=CC(=O)OC3)CC[C@]21O (some centres undefined) : 0.0214 µM

Reported TGI of N#CC(/C(=N\NC(N)=S)C(=O)NC1C2CC3CC(C2)CC1C3)c1ccc(Cl)cc1 (centres undefined) : > 100 µM

Reported TGI of O=C1CCCC2COc3ccc(O)c1c32 (centres undefined) : > 100 µM

====

- System: HOP-92 NSCLC
- assay-remarks: NCI tumour cell line growth inhibition, 48 h
So I've got a bunch of compounds here, and I need their GI50 values.

Reported GI50 of C=C1C(=O)O[C@H]2[C@H](OC(C)=O)[C@@H](C)CCC/C(C)=C/CC[C@]3(CO3)[C@H](O)C[C@@H]12 : 2.11 µM

Reported GI50 of CCC[CH2][Ge]([CH2]CCC)([CH2]CCC)[O]C(=O)CCl : 0.573 µM

Reported GI50 of CC(C)=CCC[C@](C)(O)[C@H]1CC[C@]2(C)[C@@H]1CC[C@@H]1[C@@]3(C)CC[C@H](OC(=O)CCC(=O)O)C(C)(C)[C@@H]3CC[C@]12C : 14.5 µM

Reported GI50 of NC(=O)c1ccc(NC(=O)c2oc3ccccc3c2-c2cnn(-c3ccccc3)c2)cc1 : 1.69 µM

Reported GI50 of Nc1ccccc1C#Cc1ccccc1C#CCCCCO : 28.1 µM

Reported GI50 of O=C(O)CCN1C(=O)/C(=C/C(Cl)=C/c2ccccc2)SC1=S : 4.35 µM

Reported GI50 of C[C@@H]1CC[C@H]2C(CN3CCN(CC4=C(C(F)(F)F)O[C@@H]5O[C@@]6(C)CC[C@H]7[C@H](C)CC[C@@H]4[C@@]57OO6)CC3)=C(C(F)(F)F)O[C@@H]3O[C@@]4(C)CC[C@@H]1[C@]32OO4 : 5.15 µM

Reported GI50 of COc1cc([N+](=O)[O-])c2ncccc2c1O : 47.1 µM

Reported GI50 of Cc1cc(C#Cc2ccccc2)ccc1-n1c(/C=C/c2ccc(O)cc2)nc2ccccc2c1=O : 2.5 µM

Reported GI50 of COc1cc(C(=O)c2c(-c3ccccc3)oc3ccccc23)cc(OC)c1O : 0.595 µM

Reported GI50 of CCOc1ccc(N2C(N)=NC(N)=NC2(C)C)cc1 : > 100 µM

Reported GI50 of CN(C)c1ccc(/C=N/Nc2ccc(-c3nc4ccccc4[nH]3)cc2)cc1 : 12.4 µM

Reported GI50 of Fc1cc(Nc2ccc3c(OCCCN4CCOCC4)cccc3n2)ccc1Cl : 2.4 µM

Reported GI50 of COc1ccccc1OCC(O)CO (centres undefined) : > 100 µM
